target of assay: 5-Hydroxytryptamine (Serotonin) Receptor 2A (5-HT2A) (Homo sapiens, UniProt P28223)
Sequence (P28223 whole entry, looked up): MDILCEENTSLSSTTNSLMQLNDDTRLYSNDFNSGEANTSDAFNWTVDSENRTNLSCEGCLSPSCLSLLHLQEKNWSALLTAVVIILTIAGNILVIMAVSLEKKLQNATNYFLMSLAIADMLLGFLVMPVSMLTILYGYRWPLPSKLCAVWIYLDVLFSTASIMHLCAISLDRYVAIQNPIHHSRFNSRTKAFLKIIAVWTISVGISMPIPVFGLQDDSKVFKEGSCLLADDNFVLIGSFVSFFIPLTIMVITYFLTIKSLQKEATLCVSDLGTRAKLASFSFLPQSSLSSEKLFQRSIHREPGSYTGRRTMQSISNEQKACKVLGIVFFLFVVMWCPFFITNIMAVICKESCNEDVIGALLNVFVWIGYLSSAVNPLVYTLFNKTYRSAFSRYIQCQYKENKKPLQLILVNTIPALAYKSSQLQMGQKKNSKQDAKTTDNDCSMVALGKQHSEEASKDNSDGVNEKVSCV
assay explanation: Calcium flux secondary messenger assay, 5-HT2A
Counter-ions that a name gives are not always drawn.

molecule	target of assay	EC50
CNC(C)C(=O)c1c[nH]c2ccc(F)cc12 (stereo not drawn) [BK-5F-NM-AMT, hydrochloride]	5-Hydroxytryptamine (Serotonin) Receptor 2A (5-HT2A) (Homo sapiens, UniProt P28223)	> 10 µM
CNC(C)C(=O)c1c[nH]c2ccc(Cl)cc12 (stereo not drawn) [BK-5Cl-NM-AMT, hydrochloride]	5-Hydroxytryptamine (Serotonin) Receptor 2A (5-HT2A) (Homo sapiens, UniProt P28223)	> 10 µM
CNC(C)C(=O)c1c[nH]c2ccc(Br)cc12 (stereo not drawn) [BK-5Br-NM-AMT, hydrochloride]	5-Hydroxytryptamine (Serotonin) Receptor 2A (5-HT2A) (Homo sapiens, UniProt P28223)	> 10 µM
